Assay: reduction of polyQ htt aggregates in cells – imaging, exon1htt(103Q)mCFP cells, high-content imaging, primary screen (AID 483);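 also: compound exposure lasted 3 days before fixation; percent of the per-plate median nuclei count of sample wells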
Details: exon1htt(103Q)mCFP cell line, aggregate imaging, at 2 µM; measured here: cell count, toxicity
Measure: nuclei count (%)
Supply the numeric figure in %, leaving out any unit text.

Solved cases (5 shown):
{"Compound": "O=C(Cn1c(=O)[nH]c2ccsc2c1=O)N1CCN(c2ccc(F)cc2)CC1", "Reported result": 106}
{"Compound": "N#Cc1c(N2CCCC2)nc(N)c2c(N)nc(N3CCCC3)cc12", "Reported result": 84.2}
{"Compound": "Cc1ccccc1C(=O)NC1CCN(Cc2nnnn2Cc2ccccc2)CC1", "Reported result": 110}
{"Compound": "O=C(O)C(c1ccccc1)N1CCCC1 (stereo unspecified)", "Reported result": 108}
{"Compound": "c1ccc(-c2cc(CSc3nc4ccccc4[nH]3)on2)cc1", "Reported result": 99.4}

INPUT: Name the recorded nuclei count for O=C(NCc1cccs1)C(Cc1ccccc1)n1cccc1 (stereo unspecified) .
OUTPUT: 95.4

INPUT: Name the recorded nuclei count for "Cc1cccc(NC(=O)c2cc3ccccc3o2)c1" .
OUTPUT: 103

INPUT: Name the recorded nuclei count for "Cc1ccccc1-c1nc(CN2CCC(C(=O)N3CCC(C(N)=O)CC3)CC2)c(C)o1" .
OUTPUT: 87.6

INPUT: Name the recorded nuclei count for CCC(C)OC(=O)c1[nH]c2c(c1C)C(=O)CC(c1ccc(N(C)C)cc1)C2 (stereo unspecified) .
OUTPUT: 108

INPUT: Name the recorded nuclei count for Cc1c(NC(=O)C(C)Oc2ncnc3ccccc23)c(=O)n(-c2ccccc2)n1C (stereo unspecified) .
OUTPUT: 78

INPUT: Name the recorded nuclei count for COc1cc(C2=NOC(C(=O)NCc3ccc(F)cc3)C2)cc(OC)c1OC (stereo unspecified) .
OUTPUT: 2.2

###

Molecular target: Voltage-gated potassium channel subunit beta-2 (Rattus norvegicus) (UniProt P62483)
Sequence (P62483 whole entry, looked up): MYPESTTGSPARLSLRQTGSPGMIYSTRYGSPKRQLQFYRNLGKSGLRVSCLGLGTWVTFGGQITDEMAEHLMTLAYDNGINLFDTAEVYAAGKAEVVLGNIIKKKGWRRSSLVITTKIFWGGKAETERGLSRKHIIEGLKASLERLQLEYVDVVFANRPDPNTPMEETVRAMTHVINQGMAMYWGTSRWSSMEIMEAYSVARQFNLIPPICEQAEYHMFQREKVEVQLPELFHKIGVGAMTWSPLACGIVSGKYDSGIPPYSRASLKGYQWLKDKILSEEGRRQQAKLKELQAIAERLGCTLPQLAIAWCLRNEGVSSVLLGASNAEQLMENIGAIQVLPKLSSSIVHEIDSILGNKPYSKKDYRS
Test: enhancers of rat Kvbeta2 NADPH turnover – biochemical, NADPH fluorescence, primary screen (AID 623);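 also: fluorescence intensity change per second fitted from 20 to 320 s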
Details: Recombinant KvBeta, NADPH fluorescence decrease slope, 10 min; at 10 µM; stronger effect = lower value
The source made the active and inactive calls.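 How the source made its calls: active means NADPH fluorescence slope more negative than the mean of all samples by about 3 SD, 99.7% confidence; inactive means the rest.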
Measured NADPH fluorescence slope values are reported for all entries that follow.

Solved cases (5 shown):
{"Compound": "COc1ccc(OCc2cccc(C(=O)O)c2)cc1", "NADPH fluorescence slope": "5e-05 (inactive)"}
{"Compound": "O=C1OCCC1Sc1ncnc2sccc12 (configuration not stated)", "NADPH fluorescence slope": "-7.9e-05 (inactive)"}
{"Compound": "CCOc1cc(C2/C(=C(/O)c3ccc(OC(C)C)cc3)C(=O)C(=O)N2CCCOC)ccc1O (configuration not stated)", "NADPH fluorescence slope": "2e-05 (inactive)"}
{"Compound": "COc1cccc(OCc2nnc(SCC(=O)OCc3ccccc3)o2)c1", "NADPH fluorescence slope": "-4.9e-06 (inactive)"}
{"Compound": "O=S(=O)(NCc1ccccn1)c1ccc2c(c1)OCCO2", "NADPH fluorescence slope": "-8e-05 (inactive)"}

INPUT: Name the recorded NADPH fluorescence slope for "Cn1c(CN2CCCCC2)nc2cc(NC(=O)c3ccccc3)ccc21" .
OUTPUT: -9.5e-07 (inactive)

INPUT: Name the recorded NADPH fluorescence slope for c1cc2c(cc1C1CCCN1)OCCCO2 (configuration not stated) .
OUTPUT: 1.8e-05 (inactive)

INPUT: Name the recorded NADPH fluorescence slope for "CN1CCN(S(=O)(=O)c2ccc(Sc3nnc(-c4cccs4)n3-c3ccccc3)nc2)CC1" .
OUTPUT: -2e-05 (inactive)

INPUT: Name the recorded NADPH fluorescence slope for CCC1CCCCN1CCCNC(=O)c1ccc(CS(=O)(=O)Cc2ccccc2F)o1 (configuration not stated) .
OUTPUT: -5.4e-05 (inactive)

INPUT: Name the recorded NADPH fluorescence slope for "Cc1cc2oc(=O)cc(CN3CCCCC3)c2cc1C(C)C" .
OUTPUT: -2.5e-05 (inactive)

INPUT: Name the recorded NADPH fluorescence slope for "COc1ccc(-c2nnc(SCC(=O)Nc3cc(C)on3)n2C)cc1OC" .
OUTPUT: -1.3e-05 (inactive)

INPUT: Name the recorded NADPH fluorescence slope for "Cn1c(=O)[nH]c(=O)c2c1nc(N1CCCCCC1)n2CCCSc1nc2ccccc2o1" .
OUTPUT: -4.5e-05 (inactive)

INPUT: Name the recorded NADPH fluorescence slope for "C1=Nc2c(NCc3ccccc3)ncnc2Oc2ccccc21" .
OUTPUT: -2.6e-05 (inactive)
